Organism: Homo sapiens
Assay: Selectivity ratio of IC50 for BRD3-BD1 (unknown origin) to IC50 for BRD3-BD2 (unknown origin)
Class field: derived from Ratio IC50; ranges low: < 8; intermediate: ≥ 8 and < 20; high: ≥ 20

Some entries whose results are on file:
* CC(=O)N1CCc2c(sc3nc(SCC(=O)Nc4cccc(Cl)c4)n(Cc4ccco4)c(=O)c23)C1 | intermediate
* COc1ccccc1NC(=O)CSc1nc2sc3c(c2c(=O)n1Cc1ccco1)CCN(C(C)=O)C3 | high
* CC(=O)c1ccc(NC(=O)CSc2nc3sc4c(c3c(=O)n2Cc2ccco2)CCN(C(C)=O)C4)cc1 | low
* CCOc1ccccc1NC(=O)CSc1nc2sc3c(c2c(=O)n1Cc1ccco1)CCN(C(C)=O)C3 | high
* COc1ccc(NC(=O)CSc2nc3sc4c(c3c(=O)n2Cc2ccco2)CCN(C(C)=O)C4)cc1 | low
* CC(=O)N1CCc2c(sc3nc(SCC(=O)Nc4ccc(C)cc4)n(Cc4ccco4)c(=O)c23)C1 | low
* CC(=O)N1CCc2c(sc3nc(SCC(=O)Nc4cccc(C)c4)n(Cc4ccco4)c(=O)c23)C1 | intermediate
* CC(=O)N1CCc2c(sc3nc(SCC(=O)Nc4ccc(F)cc4)n(Cc4ccco4)c(=O)c23)C1 | low

Please look at the following compound next.
Class for CC(=O)N1CCc2c(sc3nc(SCC(=O)Nc4cc(Cl)ccc4C)n(-c4ccc(C)o4)c(=O)c23)C1 ?
intermediate
